Each entry below carries its recorded IC50.
target_entity: full length mouse TREX1 (Mus musculus, UniProt Q91XB0)
Construct: N-terminally His-Tev tagged full length mouse TREX1; made in house; host or cells: E. coli
Sequence (Q91XB0 whole entry): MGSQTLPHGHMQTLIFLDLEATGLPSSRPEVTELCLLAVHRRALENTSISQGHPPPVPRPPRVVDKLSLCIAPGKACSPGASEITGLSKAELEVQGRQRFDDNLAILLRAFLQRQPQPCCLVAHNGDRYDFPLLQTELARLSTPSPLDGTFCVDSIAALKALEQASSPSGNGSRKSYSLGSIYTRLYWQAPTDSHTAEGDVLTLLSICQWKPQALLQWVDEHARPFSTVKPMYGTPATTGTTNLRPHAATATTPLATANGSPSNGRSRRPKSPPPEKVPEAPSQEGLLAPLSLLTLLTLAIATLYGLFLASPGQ
protocol_description: mTREX1 Biochemical Assay (fluorescence, dsDNA substrate degradation)
assay_context: biochemical, read-out: mTREX1 IC50

CC(c1nc(C(=O)Nc2cnoc2)c(O)c(=O)n1C)C(c1cnn(C)c1)c1cc(F)ccc1C#N (single isomer, unassigned) [Example 14 D1E2] :: 1 to 10 nM
COC(C)(C)Cn1cc(C(c2ccccc2C#N)C(C)c2nc(C(=O)Nc3cnoc3)c(O)c(=O)n2C)cn1 (single isomer, unassigned) [Example 37 D1E1] :: 1 to 10 nM
CCn1ncc(C(c2ccccc2C#N)C(C)c2nc(C(=O)Nc3cnoc3)c(O)c(=O)n2C)c1C (single isomer, unassigned) [Example 68 D1E1] :: < 1 nM
Cc1cc(C(c2cc(F)ccc2C#N)C(C)c2nc(C(=O)Nc3cnoc3)c(O)c(=O)n2C)n(C)n1 (single isomer, unassigned) [Example 111 D2E1] :: > 10 nM
CC(c1nc(C(=O)Nc2cnoc2)c(O)c(=O)n1C)C(c1cnn(C)c1)c1ccccc1Cl (single isomer, unassigned) [Example 77 D2E2] :: > 10 nM

Quote full length mouse TREX1 (Mus musculus, UniProt Q91XB0) IC50 for entry CC(c1nc(C(=O)Nc2cnoc2)c(O)c(=O)n1C)C(c1cnn(C)c1)c1cc(F)c(F)cc1Cl (single isomer, unassigned) [Example 28 D1E1] . 1 to 10 nM

Quote full length mouse TREX1 (Mus musculus, UniProt Q91XB0) IC50 for entry CC(c1nc(C(=O)Nc2cnoc2)c(O)c(=O)n1C)C(c1cnn(CCO)c1)c1ccccc1C#N (single isomer, unassigned) [Example 35 D2E2] . > 10 nM

Quote full length mouse TREX1 (Mus musculus, UniProt Q91XB0) IC50 for entry COCCn1ncc(C(c2cc(F)ccc2Cl)C(C)c2nc(C(=O)Nc3cnoc3)c(O)c(=O)n2C)c1C (single isomer, unassigned) [Example 108 D1E2] . > 10 nM

Quote full length mouse TREX1 (Mus musculus, UniProt Q91XB0) IC50 for entry CCn1cc(C(c2cc(F)ccc2Cl)C(C)c2nc(C(=O)Nc3cnoc3)c(O)c(=O)n2C)cn1 (single isomer, unassigned) [Example 60 D1E2] . > 10 nM

Quote full length mouse TREX1 (Mus musculus, UniProt Q91XB0) IC50 for entry COCCn1ncc(C(c2cc(F)ccc2C#N)C(C)c2nc(C(=O)Nc3cnoc3)c(O)c(=O)n2C)c1C (single isomer, unassigned) [Example 104 D1E2] . > 10 nM

Quote full length mouse TREX1 (Mus musculus, UniProt Q91XB0) IC50 for entry CC(c1nc(C(=O)Nc2cnoc2)c(O)c(=O)n1C)C(c1cn[nH]c1)c1ccccc1C#N (single isomer, unassigned) [Example 12 D2E1] . > 10 nM

Quote full length mouse TREX1 (Mus musculus, UniProt Q91XB0) IC50 for entry Cc1cc(C(c2cc(F)ccc2Cl)C(C)c2nc(C(=O)Nc3cnoc3)c(O)c(=O)n2C)n(C)n1 (single isomer, unassigned) [Example 113 D2E2] . > 10 nM

Quote full length mouse TREX1 (Mus musculus, UniProt Q91XB0) IC50 for entry CCn1cc(C(c2cc(F)c(F)cc2Cl)C(C)c2nc(C(=O)Nc3cnoc3)c(O)c(=O)n2C)cn1 (single isomer, unassigned) [Example 72 D1E2] . > 10 nM

Quote full length mouse TREX1 (Mus musculus, UniProt Q91XB0) IC50 for entry COCCn1cc(C(c2cc(F)c(F)cc2Cl)C(C)c2nc(C(=O)Nc3cnoc3)c(O)c(=O)n2C)cn1 (single isomer, unassigned) [Example 73 D1E2] . > 10 nM

Quote full length mouse TREX1 (Mus musculus, UniProt Q91XB0) IC50 for entry CCn1cc(C(c2ccccc2C#N)C(C)c2nc(C(=O)Nc3cnoc3)c(O)c(=O)n2C)cn1 (single isomer, unassigned) [Example 13 D1E1] . < 1 nM

Quote full length mouse TREX1 (Mus musculus, UniProt Q91XB0) IC50 for entry COCCn1cc(C(c2ccccc2C#N)C(C)c2nc(C(=O)Nc3cnoc3)c(O)c(=O)n2C)c(C)n1 (single isomer, unassigned) [Example 71 D1E2] . > 10 nM

Quote full length mouse TREX1 (Mus musculus, UniProt Q91XB0) IC50 for entry CC(c1nc(C(=O)Nc2cnoc2)c(O)c(=O)n1C)C(c1cnn(CCCN(C)C)c1)c1ccccc1C#N (single isomer, unassigned) [Example 34 D2E1] . > 10 nM
